assay_summary: Kinetic solubility analysis (CLND)
Assay type: physicochemical
condition_set: 24.2 °C, kinetic from dmso stock, from DMSO stocks, 1.0% DMSO, 24-hour incubation at ambient temperature, medium (0.1N HCl or PBS 7.4) not stated
Reported solubility kinetic at 24 h is given for each of the following compounds.

[
  {
    "entry_smiles": "C#C[C@]1(COC(=O)c2ccccc2COC(=O)CCCCCCCCCCCCCCC)O[C@@H](n2cnc3c(N)nc(F)nc32)C[C@@H]1O",
    "value_relation_sign": "<",
    "solubility kinetic at 24 h (µM)": 1
  },
  {
    "entry_smiles": "C#C[C@]1(CO)O[C@@H](n2cnc3c(NC(=O)OCCCCCCCCCCCCCC)nc(F)nc32)C[C@@H]1O",
    "value_relation_sign": "=",
    "solubility kinetic at 24 h (µM)": 1.2
  },
  {
    "entry_smiles": "C#C[C@]1(COC(=O)CCCCCC)O[C@@H](n2cnc3c(NC(=O)CCCCCC)nc(F)nc32)C[C@@H]1OC(=O)CCCCCC",
    "value_relation_sign": "=",
    "solubility kinetic at 24 h (µM)": 1.5
  }
]
